Sourced from paper PMC6269938

Test system: CDK1/Cyclin B
MEASUREMENT PROTOCOL: CDK1/Cyclin B kinase inhibition assay
Assay type: biochemical, starfish (Marthasterias glacialis)
TEST SETTINGS: concentration of 30 µM
EXPERIMENTAL READOUT: CDK1/Cyclin B inhibition at 30 µM, in words

| COMPOUND | TARGET OF ASSAY | MEASUREMENT |
| --- | --- | --- |
| COc1cc2ccnc3c2c(c1OC)-c1ccccc1C3=O | CDK1/Cyclin B | unable to inhibit |
| COc1c(O)cc2c3c(cc4ccccc4c13)NC2=O | CDK1/Cyclin B | inactive |
| COc1ccc2c(c1O)-c1c(OC)c(O)cc3c1C(C2)N(C)CC3 (single isomer, unassigned; (+)) [Compound 10, (+)-N-methyllindcarpine] | CDK1/Cyclin B | inactive |
| O=C1c2ccccc2-c2c3c(cc4ccnc1c24)OCO3 | CDK1/Cyclin B | unable to inhibit |
